These entries and their values trace back to PubChem BioAssay (EPA / NIEHS).

assay: BSK_3C_Vis: BioMAP Diversity Plus: 3C Assay for Morphology Visualization (AID 2283025); details: primary human endothelial cells (HUVEC);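 also: fitted both ways so gain or loss versus DMSO counts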
The source made the active and inactive calls. The calls were made as follows: active = hit-call score of the fitted dose curve at least 0.9, where 1 is the maximum; inactive = score below 0.9.
Return exactly one item of active, inactive

Example entries and their recorded answers appear below.
CCCCCCCCCCCCS: active
CCOC(=O)CCCCCCCCC(=O)OCC: inactive
COc1ccccc1NC(=O)CC(C)=O: inactive
CC1=CC(C)C(C=O)C(C)C1 (configuration not stated) (tested in a mixture with another compound): inactive

Incoming: Entry COC(=O)c1ccc(C(=O)OC)cc1 : call = ?
Outgoing: inactive

Incoming: Entry Nc1ccc(N)c([N+](=O)[O-])c1 : call = ?
Outgoing: inactive

Incoming: Entry C[C@]12CC[C@@H]3c4ccc(O)cc4CC[C@H]3[C@@H]1CC[C@@H]2O : call = ?
Outgoing: active
